Tested on: NCI-H460
EXPERIMENTAL_DETAILS: Growth inhibition of human NCI-H460 cells at 10 uM after 48 hrs by sulforhodamine B assay
Assay type: functional
RUN_PARAMETERS: NCI-H460, 48 h, values are per cent of control

- SMILES_ENTRY: "N#C/C(=C\\c1ccsc1)c1ccc2c(c1)OCO2"
  UNITS: "%"
  growth, % of control at 10 µM: 104
- SMILES_ENTRY: "COc1ccc(/C(C#N)=C/c2ccc3c(c2)OCO3)cc1"
  UNITS: "%"
  growth, % of control at 10 µM: 64.3
- SMILES_ENTRY: "COc1ccc(/C=C(\\C#N)c2ccc3c(c2)OCO3)c2ccccc12"
  UNITS: "%"
  growth, % of control at 10 µM: 13.2
- SMILES_ENTRY: "N#C/C(=C\\c1ccc(Cl)cc1Cl)c1ccc2c(c1)OCO2"
  UNITS: "%"
  growth, % of control at 10 µM: 103
- SMILES_ENTRY: "COc1ccc(/C=C(\\C#N)c2ccc3c(c2)OCO3)cc1"
  UNITS: "%"
  growth, % of control at 10 µM: 15.5
- SMILES_ENTRY: "N#C/C(=C\\c1ccc2c(c1)OCO2)c1ccc2c(c1)OCO2"
  UNITS: "%"
  growth, % of control at 10 µM: 83.6
